Values were extracted from patent US20090118184A1.

Each entry below carries its recorded Decay rate relative to wild type, Factor VIIIa (1.5 nM, factor IXa absent).
Target: T1, factor VIIIa A1/A3C1C2 dimer, wild type (human, UniProt P00451 20-391; P00451 1709-2351)
T1 sequence 1: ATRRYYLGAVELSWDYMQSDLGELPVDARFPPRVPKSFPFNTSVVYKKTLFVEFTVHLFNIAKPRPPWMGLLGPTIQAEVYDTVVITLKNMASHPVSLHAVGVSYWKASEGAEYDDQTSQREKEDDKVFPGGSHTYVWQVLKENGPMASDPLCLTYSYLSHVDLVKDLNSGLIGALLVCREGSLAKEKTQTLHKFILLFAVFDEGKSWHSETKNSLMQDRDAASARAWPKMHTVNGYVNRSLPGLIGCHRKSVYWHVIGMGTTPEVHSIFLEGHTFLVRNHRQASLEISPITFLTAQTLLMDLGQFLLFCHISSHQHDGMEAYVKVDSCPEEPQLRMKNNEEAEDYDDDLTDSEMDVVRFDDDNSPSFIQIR
T1 sequence 2: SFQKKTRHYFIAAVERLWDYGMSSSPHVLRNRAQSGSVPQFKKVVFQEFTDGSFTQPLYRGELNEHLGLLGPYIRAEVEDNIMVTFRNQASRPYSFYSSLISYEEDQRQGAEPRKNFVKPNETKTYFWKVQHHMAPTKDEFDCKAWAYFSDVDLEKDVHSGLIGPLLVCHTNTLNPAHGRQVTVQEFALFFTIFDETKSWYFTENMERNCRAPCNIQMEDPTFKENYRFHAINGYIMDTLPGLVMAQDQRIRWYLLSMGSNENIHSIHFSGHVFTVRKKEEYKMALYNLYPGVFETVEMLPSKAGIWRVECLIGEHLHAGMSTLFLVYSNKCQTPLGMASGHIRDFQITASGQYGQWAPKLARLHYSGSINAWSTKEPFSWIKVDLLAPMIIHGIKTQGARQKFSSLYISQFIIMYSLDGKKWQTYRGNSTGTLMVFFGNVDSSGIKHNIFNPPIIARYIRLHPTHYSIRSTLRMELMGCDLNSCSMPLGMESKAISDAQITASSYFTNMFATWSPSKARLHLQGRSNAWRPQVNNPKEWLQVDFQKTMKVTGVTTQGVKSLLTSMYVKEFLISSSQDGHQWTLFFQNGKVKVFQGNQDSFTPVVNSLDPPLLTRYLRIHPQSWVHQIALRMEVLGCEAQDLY
Assay: cell-based or functional assay

Study these solved cases before continuing.
For the binder factor VIIIa A2 subunit, Glu665Val (other) SVAKKHPKTWVHYIAAEEEDWDYAPLVLAPDDRSYKSQYLNNGPQRIGRKYKKVRFMAYTDETFKTREAIQHESGILGPLLYGEVGDTLLIIFKNQASRPYNIYPHGITDVRPLYSRRLPKGVKHLKDFPILPGEIFKYKWTVTVEDGPTKSDPRCLTRYYSSFVNMERDLASGLIGPLLICYKESVDQRGNQIMSDKRNVILFSVFDENRSWYLTENIQRFLPNPAGVQLEDPEFQASNIMHSINGYVFDSLQLSVCLHEVAYWYILSIGAQTDFLSVFFSGYTFKHKMVYVDTLTLFPFSGETVFMSMENPGLWILGCHNSDFRNRGMTALLKVSSCDKNTGDYYEDSYEDISAYLLSKNNAIEPR , what Decay rate relative to wild type, Factor VIIIa (1.5 nM, factor IXa absent) is on record?
0.28 relative to wild type

Could you share which Decay rate relative to wild type, Factor VIIIa (1.5 nM, factor IXa absent) value was measured for factor VIIIa A2 subunit, wild type (other) SVAKKHPKTWVHYIAAEEEDWDYAPLVLAPDDRSYKSQYLNNGPQRIGRKYKKVRFMAYTDETFKTREAIQHESGILGPLLYGEVGDTLLIIFKNQASRPYNIYPHGITDVRPLYSRRLPKGVKHLKDFPILPGEIFKYKWTVTVEDGPTKSDPRCLTRYYSSFVNMERDLASGLIGPLLICYKESVDQRGNQIMSDKRNVILFSVFDENRSWYLTENIQRFLPNPAGVQLEDPEFQASNIMHSINGYVFDSLQLSVCLHEVAYWYILSIGAQTDFLSVFFSGYTFKHKMVYEDTLTLFPFSGETVFMSMENPGLWILGCHNSDFRNRGMTALLKVSSCDKNTGDYYEDSYEDISAYLLSKNNAIEPR ?
1 relative to wild type

Let us examine a further case.
# input binder: factor VIIIa A2 subunit, Asp519Ala (other) SVAKKHPKTWVHYIAAEEEDWDYAPLVLAPDDRSYKSQYLNNGPQRIGRKYKKVRFMAYTDETFKTREAIQHESGILGPLLYGEVGDTLLIIFKNQASRPYNIYPHGITDVRPLYSRRLPKGVKHLKDFPILPGEIFKYKWTVTVEAGPTKSDPRCLTRYYSSFVNMERDLASGLIGPLLICYKESVDQRGNQIMSDKRNVILFSVFDENRSWYLTENIQRFLPNPAGVQLEDPEFQASNIMHSINGYVFDSLQLSVCLHEVAYWYILSIGAQTDFLSVFFSGYTFKHKMVYEDTLTLFPFSGETVFMSMENPGLWILGCHNSDFRNRGMTALLKVSSCDKNTGDYYEDSYEDISAYLLSKNNAIEPR ; wanted: its Decay rate relative to wild type, Factor VIIIa (1.5 nM, factor IXa absent)
0.64 relative to wild type
